Quick reference for Kd among some molecules
- System Tested: human transferrin receptor (hTfR) (Homo sapiens, UniProt P02786)
- Construct: made in house
- Sequence (P02786 89-760 limits assumed): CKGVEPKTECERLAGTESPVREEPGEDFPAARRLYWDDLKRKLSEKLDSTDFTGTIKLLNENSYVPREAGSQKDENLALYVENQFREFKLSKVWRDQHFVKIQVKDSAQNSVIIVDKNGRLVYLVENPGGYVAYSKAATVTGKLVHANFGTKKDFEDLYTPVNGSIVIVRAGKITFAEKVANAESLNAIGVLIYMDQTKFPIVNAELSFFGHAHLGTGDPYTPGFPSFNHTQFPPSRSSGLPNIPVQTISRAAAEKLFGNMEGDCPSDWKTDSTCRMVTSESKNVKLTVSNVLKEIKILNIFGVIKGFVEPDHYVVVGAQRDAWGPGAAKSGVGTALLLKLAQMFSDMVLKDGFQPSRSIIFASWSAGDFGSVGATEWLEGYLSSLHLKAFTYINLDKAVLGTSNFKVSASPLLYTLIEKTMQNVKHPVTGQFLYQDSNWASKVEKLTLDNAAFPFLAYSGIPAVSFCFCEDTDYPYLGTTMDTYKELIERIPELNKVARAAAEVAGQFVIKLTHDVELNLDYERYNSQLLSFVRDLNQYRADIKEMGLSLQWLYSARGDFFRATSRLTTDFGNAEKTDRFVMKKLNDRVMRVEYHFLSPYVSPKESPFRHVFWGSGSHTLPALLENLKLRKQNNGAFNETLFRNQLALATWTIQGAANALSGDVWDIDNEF
- Assay Name: Evaluation of molecular interaction between transferrin receptor (hTfR) and peptide using surface plasmon resonance (SPR)
- Assay type: binding
- Measurement Conditions: surface plasmon resonance, binding to hTfR; KD class symbol; read-out: SPR (KD value)

>  <Record Smiles>
CC[C@H](C)[C@@H]1NC(=O)[C@H](Cc2ccc(OCC(=O)O)cc2)NC(=O)[C@H](Cc2ccc(O)cc2)NC(=O)[C@H](CC(N)=O)NC(=O)[C@H](Cc2c[nH]c3ccccc23)NC(=O)[C@H](C(C)C)NC(=O)[C@H](Cc2cccc(Cl)c2)N(C)C(=O)[C@H](C(C)C)NC(=O)[C@H](C)NC(=O)CSC[C@@H](C(=O)NCCOCCOCCOCCOCCC(N)=O)NC(=O)[C@H](Cc2ccc(O)cc2)N(C)C(=O)[C@H](Cc2ccccc2)NC(=O)[C@H](CCCNC(=N)N)NC(=O)[C@H](CCC(=O)NCCOCCOCCOCCOC)NC(=O)[C@H]([C@@H](C)CC)NC1=O

>  <Kd>
0.001 to 0.1 µM

$$$$
>  <Record Smiles>
CC[C@H](C)[C@@H]1NC(=O)[C@H](Cc2ccc(O)cc2)NC(=O)[C@H](Cc2ccc(O)cc2)NC(=O)[C@H](CC(N)=O)NC(=O)[C@H](Cc2c[nH]c3ccccc23)NC(=O)[C@H](C(C)C)NC(=O)[C@H](Cc2ccccc2)N(C)C(=O)[C@H](C(C)C)NC(=O)[C@H](C)NC(=O)CSC[C@@H](C(N)=O)NC(=O)[C@H](Cc2ccc(O)cc2)N(C)C(=O)[C@H](Cc2ccccc2)NC(=O)[C@H](CCCNC(=N)N)NC(=O)[C@H](CCCCNC(=O)CCOCCOCCOCCOC)NC(=O)[C@H]([C@@H](C)CC)NC1=O

>  <Kd>
0.001 to 0.1 µM

$$$$

====

- System Tested: human transferrin receptor (hTfR) (Homo sapiens)
- Construct: made in house
- Assay Name: Evaluation of molecular interaction between transferrin receptor (hTfR) and peptide using surface plasmon resonance (SPR)
- Format: binding
- Measurement Conditions: surface plasmon resonance, binding to hTfR; KD class symbol; read-out: SPR (KD value)
pKd: −log10 of the molar value.
Quick reference for pKd among some compounds
Endpoint: pKd

>  <Record Smiles>
CC[C@H](C)[C@@H]1NC(=O)[C@H](Cc2ccc(OC)cc2)NC(=O)[C@H](Cc2ccc(O)cc2)NC(=O)[C@H](CC(N)=O)NC(=O)[C@H](Cc2c[nH]c3ncccc23)NC(=O)[C@H](C(C)C)NC(=O)[C@H](Cc2cccc(Cl)c2)N(C)C(=O)[C@H](C(C)C)NC(=O)[C@H](C)NC(=O)CSC[C@@H](C(=O)NCCOCCOCCOCCOCCC(N)=O)NC(=O)[C@H](Cc2ccc(O)cc2)N(C)C(=O)[C@H](Cc2ccncc2)NC(=O)[C@H](CCCNC(=N)N)NC(=O)[C@H](CCCNC(=N)N)NC(=O)[C@H]([C@@H](C)CC)NC1=O

>  <Endpoint>
pKd

>  <Reported>
7.00 to 9.00

$$$$
>  <Record Smiles>
CC[C@H](C)[C@@H]1NC(=O)[C@H](Cc2ccc(OC)cc2)NC(=O)[C@H](Cc2ccc(O)cc2)NC(=O)[C@H](CC(N)=O)NC(=O)[C@H](Cc2c[nH]c3ccccc23)NC(=O)[C@H](C(C)C)NC(=O)[C@H](Cc2cccc(Cl)c2)N(C)C(=O)[C@H](C(C)C)NC(=O)[C@H](C)NC(=O)CSC[C@@H](C(=O)NCCOCCOCCOCCOCCC(N)=O)NC(=O)[C@H](Cc2ccc(O)cc2)N(C)C(=O)[C@H](Cc2ccc(O)cc2)NC(=O)[C@H](CCCNC(=N)N)NC(=O)[C@H](CCCNC(=N)N)NC(=O)[C@H]([C@@H](C)CC)NC1=O

>  <Endpoint>
pKd

>  <Reported>
> 9.00

$$$$
>  <Record Smiles>
CC[C@H](C)[C@@H]1NC(=O)[C@H](Cc2ccc(OCC(=O)O)cc2)NC(=O)[C@H](Cc2ccc(O)cc2)NC(=O)[C@H](CC(N)=O)NC(=O)[C@H](Cc2c[nH]c3ncccc23)NC(=O)[C@H](C(C)C)NC(=O)[C@H](Cc2cccc(Cl)c2)N(C)C(=O)[C@H](C(C)C)NC(=O)[C@H](C)NC(=O)CSC[C@@H](C(=O)NCCOCCOCCOCCOCCC(N)=O)NC(=O)[C@H](Cc2ccc(O)cc2)N(C)C(=O)[C@H](Cc2ccncc2)NC(=O)[C@H](CCCNC(=N)N)NC(=O)[C@H](CCC(N)=O)NC(=O)[C@H]([C@@H](C)CC)NC1=O

>  <Endpoint>
pKd

>  <Reported>
7.00 to 9.00

$$$$
>  <Record Smiles>
CC[C@H](C)[C@@H]1NC(=O)[C@H](Cc2ccc(OC)cc2)NC(=O)[C@H](Cc2ccc(O)cc2)NC(=O)[C@H](CC(N)=O)NC(=O)[C@H](Cc2c[nH]c3ccccc23)NC(=O)[C@H](C(C)C)NC(=O)[C@H](Cc2cccc(Cl)c2)N(C)C(=O)[C@H](C(C)C)NC(=O)[C@H](C)NC(=O)CSC[C@@H](C(=O)NCC(=O)N[C@@H](CCCCN=[N+]=[N-])C(N)=O)NC(=O)[C@H](Cc2ccc(O)cc2)N(C)C(=O)[C@H](Cc2ccccc2)NC(=O)[C@H](CCCNC(=N)N)NC(=O)[C@H](CCCNC(=N)N)NC(=O)[C@H]([C@@H](C)CC)NC1=O

>  <Endpoint>
pKd

>  <Reported>
7.00 to 9.00

$$$$
